All figures here come from PubChem BioAssay AID1220.

target: Mannose-6-phosphate isomerase (Homo sapiens); assay: MPI inhibition at elevated mannose 6-phosphate – biochemical, fluorescence intensity, high mannose 6-phosphate, primary screen (AID 1220); details: recombinant PMI enzyme, coupled fluorescence intensity; at 20 µM
The campaign covered roughly 190,000 compounds. About 1,300 (0.68%) were called active. Cut-off read from the data, not from the text of the source: active = inhibition above about 50%; inactive = the rest. Only a selection was taken, and actives are over-represented in it overall.
Outcome codes: true (1) = active, false (0) = inactive

# molecule, label
rows = [
    ("CCC(Sc1nc(C)cc(C)n1)C(=O)Nc1cc(C)on1 (stereo unspecified)", "false (0)"),
    ("CCn1cc(Cl)c(C(=O)Nc2nc3ccccc3n2CCN2CCCCC2)n1", "false (0)"),
    ("COc1cc(/C(C)=N/Nc2ccc(C(=O)O)cc2)cc(OC)c1OC", "false (0)"),
    ("COC(=O)c1ccc(COC(=O)CNC(=O)c2ccco2)cc1", "false (0)"),
    ("COc1cc(/C=N/NC(=O)CN2CCOCC2)ccc1OCc1ccccc1", "false (0)"),
    ("[O-]/C(=C(\\C(=S)Nc1cccc2ccccc12)[n+]1ccccc1)c1cccs1", "true (1)"),
    ("CCCCCN1C=CC(=C2C(=O)c3ccccc3C2=O)C=C1", "false (0)"),
    ("Cc1ccc(S(=O)(=O)N2CCC(C(=O)NCCCN3CCCCCC3)CC2)cc1", "false (0)"),
    ("CC(Sc1nncn1C)C(=O)Nc1nnc(-c2ccccc2)s1 (stereo unspecified)", "false (0)"),
    ("CCOc1ccc(N(C(=O)C2CCCO2)C2C=CS(=O)(=O)C2)cc1 (stereo unspecified)", "false (0)"),
    ("O=C1C(=C(O)c2ccccc2)C(=O)c2ccccc21", "false (0)"),
    ("O=C(COC(=O)c1cc(=O)c2ccccc2o1)NC1CCCC1", "false (0)"),
    ("O=C(O)c1ccccc1SCC(=O)N1CCc2ccccc21", "false (0)"),
    ("CC(=O)c1c(C(C)=O)c(C)n(-c2cccc3cccnc23)c1C", "false (0)"),
    ("N#CCCn1c(C2CCCCC2)nc2ccccc21", "false (0)"),
    ("Cc1cccc(Cn2ccc(NC(=O)c3cccnc3)n2)c1", "false (0)"),
    ("COc1cc(/C=N/NC(=O)c2cc(C)n(-c3ccc(F)cc3)c2C)cc(OC)c1O", "true (1)"),
    ("O=C1C(c2ccncc2)=C(O)c2ccccc21", "false (0)"),
    ("Cc1cc(Nc2c(C#N)c(N)nn2C)ccc1F", "false (0)"),
    ("CCCC(=O)NC1=C(C#N)C2(CCCCC2)Cc2ccccc21", "false (0)"),
    ("CN(C)C(=O)c1cn(-c2ccccc2)nc1-c1cccs1", "false (0)"),
    ("CCOc1ccc(N=Nc2c(=O)[nH]n3c(C)cc(C)nc23)cc1", "false (0)"),
    ("Cc1c(Cl)c(C(=O)Nc2nc3ccccc3n2CCN2CCCCC2)nn1C", "true (1)"),
    ("Cc1cc(C(=O)N/N=C/c2ccc3c(c2)OCO3)c(C)n1-c1ccc(F)cc1", "false (0)"),
    ("O=C(C1CCCO1)N(c1ccc(F)cc1)C1C=CS(=O)(=O)C1 (stereo unspecified)", "true (1)"),
    ("O=C(c1noc2c1CCCC2)N1CCN(c2ccccc2)CC1", "false (0)"),
    ("Cc1cccc(C)c1NC(=S)/C(=C(\\[O-])c1cccs1)[n+]1ccccc1", "false (0)"),
    ("COc1cccc2c(=O)c(C/C=C(/C)Cl)c(C)[nH]c12", "false (0)"),
    ("Cc1cc(NC(=O)C23CC4CC(C2)CC(n2cnc([N+](=O)[O-])n2)(C4)C3)no1", "false (0)"),
    ("O=C(c1cccnc1)N1C2C=CC(C2)C1(C(F)(F)F)C(F)(F)F (stereo unspecified)", "false (0)"),
    ("CCCCOc1ccc(Nc2nc(C)cc(C)c2C#N)cc1", "false (0)"),
    ("CC(=O)NC1(C(F)(F)F)NC(=O)N(c2ccc(F)cc2)C1=O (stereo unspecified)", "false (0)"),
    ("COc1cc(C2C(C(C)=O)=C(O)C(=O)N2CCc2c[nH]c3ccccc23)ccc1O (stereo unspecified)", "false (0)"),
    ("CCOc1cc(-c2c(C#N)c(N)nc3c2CCCC3)ccc1O", "false (0)"),
    ("OCCCNC(=S)Nc1ccc2nc(-c3ccccn3)c(-c3ccccn3)nc2c1", "false (0)"),
    ("O=C(C1=C(c2ccccc2)C(=O)c2ccccc2C1=O)c1ccccc1", "true (1)"),
    ("CCCOC(=O)c1cc(NC(=O)/C=C/c2ccccc2)ccc1O", "false (0)"),
    ("Cc1cccc(NC(=O)Cn2nnc(-c3ccc(CN4CCCC4)cc3)n2)c1C", "false (0)"),
    ("O=C(c1ccccc1[N+](=O)[O-])N1CCCN(C(=O)c2ccccc2[N+](=O)[O-])CC1", "false (0)"),
    ("COc1ccc(OC)c(-c2nnc(NC(=O)C(C)Sc3nncn3C)s2)c1 (stereo unspecified)", "true (1)"),
    ("N#CC1=C(N)SC2(CCCCC2)SC1c1ccccc1 (stereo unspecified)", "false (0)"),
    ("CC(=O)N1C(=O)c2cccc3cccc(c23)C(=O)N1C(C)=O", "false (0)"),
    ("Cc1ccc(C(=O)Nc2ccc(Br)cc2)cc1S(=O)(=O)Nc1ccccn1", "false (0)"),
    ("Cc1nc([N+](=O)[O-])nn1C12CC3CC(CC(Cl)(C3)C1)C2", "false (0)"),
    ("Cc1nc(N2CCCC2)c2ccsc2n1", "false (0)"),
    ("O=C1CCCC2=C1C(c1ccccc1)CC(=O)N2c1ccc(F)cc1F (stereo unspecified)", "false (0)"),
]

###

target: Mannose-6-phosphate isomerase (Homo sapiens) (UniProt P34949); test: MPI inhibition at elevated mannose 6-phosphate – biochemical, fluorescence intensity, high mannose 6-phosphate, primary screen (AID 1220); details: recombinant PMI enzyme, coupled fluorescence intensity; at 20 µM
Sequence (P34949 whole entry, looked up): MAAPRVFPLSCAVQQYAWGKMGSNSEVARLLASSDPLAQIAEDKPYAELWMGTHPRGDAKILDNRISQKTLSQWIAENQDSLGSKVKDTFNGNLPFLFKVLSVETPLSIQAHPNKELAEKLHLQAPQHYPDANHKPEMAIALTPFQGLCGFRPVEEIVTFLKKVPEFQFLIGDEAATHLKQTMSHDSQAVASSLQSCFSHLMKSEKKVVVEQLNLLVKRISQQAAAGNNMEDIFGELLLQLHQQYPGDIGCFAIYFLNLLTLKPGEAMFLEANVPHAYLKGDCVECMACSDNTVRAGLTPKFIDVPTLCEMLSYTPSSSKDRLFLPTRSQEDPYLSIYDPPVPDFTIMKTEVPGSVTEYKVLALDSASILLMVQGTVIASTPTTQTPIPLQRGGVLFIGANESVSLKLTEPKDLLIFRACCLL
Screen size: about 190,000 compounds; about 1,300 (0.68%) were called active. No stated cut-off is given here; in the data, active means inhibition above about 50%; inactive means the rest. Shown is part of a subset that was picked to be rich in actives.
Labels: active, inactive

# compound, label
data = [
    ("Cc1ccc(C(=O)NNc2cc(N3CCCC3)nc(N3CCCC3)n2)cc1", "active"),
    ("O=C(CCc1ccccc1)NNC(=O)C1CCCCC1", "inactive"),
    ("COc1ccc(NCc2cc3cc(OC)ccc3[nH]c2=O)cc1", "inactive"),
    ("COCc1ccc(CN2CCc3c([nH]c4ccccc34)C2CC(C)C)o1 (configuration not stated)", "active"),
    ("CCOC(=O)c1c(NC(=O)c2cccs2)sc2c1CC(C)(C)OC2", "inactive"),
    ("CC1(C)CC(=O)C(/C=N/c2ncccc2C(=O)O)=C(O)C1", "inactive"),
    ("O=C(CCc1ccccc1)NNc1cc(N2CCCCC2)nc(N2CCCCC2)n1", "active"),
    ("Brc1ccc(-c2noc(COc3ccc4c(c3)CCC4)n2)o1", "inactive"),
    ("CC1(C)CC(=O)C(C=Nc2cccnc2/N=C/C2=C(O)CC(C)(C)CC2=O)=C(O)C1", "active"),
    ("C/C(=N\\NC(=O)C(=O)Nc1ccc(C)cc1)c1ccncc1", "inactive"),
    ("O=C(CNCC1CCCO1)N1CCN(S(=O)(=O)c2ccc3ccccc3c2)CC1 (configuration not stated)", "inactive"),
    ("O=C(NNc1cc(N2CCOCC2)nc(N2CCOCC2)n1)c1ccc(Cl)c(Cl)c1", "inactive"),
    ("Cc1cnc(CN2CCc3c([nH]c4ccccc34)C2CC(C)C)[nH]1 (configuration not stated)", "inactive"),
    ("CCn1c2ccccc2c2cc(NC(=O)N3CCOCC3)ccc21", "inactive"),
    ("O=C(NNc1cc(N2CCOCC2)nc(N2CCOCC2)n1)c1ccc([N+](=O)[O-])cc1", "active"),
    ("O=C(CS(=O)CC(=O)N(c1cccc(F)c1)C(C(=O)NC1CCCCC1)c1ccco1)Nc1ccc(F)cc1 (configuration not stated)", "inactive"),
    ("COc1ccc(NCc2cc3ccccc3[nH]c2=O)cc1", "active"),
    ("Cc1ccc(C(=O)NNC(=O)C2CCN(c3nc(C)cc(C)n3)CC2)cc1", "inactive"),
    ("Cc1ccc(C)c(C(=O)COc2ccc(C)nc2[N+](=O)[O-])c1", "inactive"),
    ("CC(C)(C)c1ccc(C(=O)NNc2cc(N3CCOCC3)nc(N3CCOCC3)n2)cc1", "inactive"),
    ("CCCC(=O)Nc1cc(Cl)ccc1C", "inactive"),
    ("COCCCNC(=S)NNC(=O)c1ccc(S(=O)(=O)N2CCC(C)CC2)cc1", "inactive"),
]
